assay: gradient 5% acetonitrile 3 min, to 50% in 2 min, to 85% in 15 min, held 3 min, 100 µL/min; conditions: column: Zorbax Extend-C18 2.1 x 50 mm; eluents: water / acetonitrile, 0.1% formic acid
quantity: RP-LC retention time (s)

Recorded RP-LC retention time, per entry:
[[record]]
compound = "COc1ccc(-c2nnc(COc3cccc(NC(=O)c4ccsc4)c3)o2)cc1"
readout_unit = "s"
recorded_value = 914

[[record]]
compound = "CCOc1ccc(OCC)c(NC(=O)c2cn3c4c(ccc(Cl)c4c2=O)OCC3)c1"
readout_unit = "s"
recorded_value = 1100

[[record]]
compound = "CC(C)NC(=O)c1ccc(OCC2CCCN(C(=O)c3cccc(Cl)c3)C2)cc1 (stereo not drawn)"
readout_unit = "s"
recorded_value = 899

[[record]]
compound = "CCNS(=O)(=O)c1cc(-c2nc(C)cs2)n(C)c1C"
readout_unit = "s"
recorded_value = 792

[[record]]
compound = "COc1ccc(CCNC(=O)Cn2c(=O)n(CC3CCCO3)c(=O)c3ccccc32)cc1OC (stereo not drawn)"
readout_unit = "s"
recorded_value = 732


P = CC1CCCN(c2ccc(-c3noc(CN4CCN(C(C)C)CC4)n3)cn2)C1 (stereo not drawn)
Q = Brc1ccc(OCc2nn3c(C4COc5ccccc5O4)nnc3s2)cc1 (stereo not drawn)
Query: Response body: label of entry with the larger RP-LC retention time; valid values P , Q . Give the label of your selection.
Result: Q

a = COc1cccc(C2CC(c3ccc(Cl)cc3)=NC3(CCN(C)CC3)N2)c1O (stereo not drawn)
b = CCn1ccc2oc(C)c(C(=O)NCc3cccc(F)c3)c2c1=O
Query: Field: lower RP-LC retention time | Options: a / b Give the label of your selection.
Result: a
(a: 606 s, b: 947 s)

P = O=C(NCc1ccc(N2CCOCC2)cc1)c1csc(-c2ccc(N3CCCC3)nc2)n1
Q = COc1ccc(-c2noc(C3CC(=O)N(c4ccc(OC)c(Cl)c4)C3)n2)c(OC)c1 (stereo not drawn)
Query: Field: lower RP-LC retention time | Options: P / Q Give the label of your selection.
Result: P
